target: recombinant human Meningioma Expressed Antigen 5 (MGEA5), also referred to as O-GlcNAcase (OGA) (Homo sapiens, UniProt O60502); construct: Full length OGA enzyme was purchased at OriGene (cat #TP322411); purchased OriGene TP322411; assay: OGA biochemical assay (inhibition of FM-GlcNAc hydrolysis, fluorescence); conditions: FM-GlcNAc substrate, maximal effect, read-out: Enzymatic Emax (%)
Sequence (O60502 whole entry): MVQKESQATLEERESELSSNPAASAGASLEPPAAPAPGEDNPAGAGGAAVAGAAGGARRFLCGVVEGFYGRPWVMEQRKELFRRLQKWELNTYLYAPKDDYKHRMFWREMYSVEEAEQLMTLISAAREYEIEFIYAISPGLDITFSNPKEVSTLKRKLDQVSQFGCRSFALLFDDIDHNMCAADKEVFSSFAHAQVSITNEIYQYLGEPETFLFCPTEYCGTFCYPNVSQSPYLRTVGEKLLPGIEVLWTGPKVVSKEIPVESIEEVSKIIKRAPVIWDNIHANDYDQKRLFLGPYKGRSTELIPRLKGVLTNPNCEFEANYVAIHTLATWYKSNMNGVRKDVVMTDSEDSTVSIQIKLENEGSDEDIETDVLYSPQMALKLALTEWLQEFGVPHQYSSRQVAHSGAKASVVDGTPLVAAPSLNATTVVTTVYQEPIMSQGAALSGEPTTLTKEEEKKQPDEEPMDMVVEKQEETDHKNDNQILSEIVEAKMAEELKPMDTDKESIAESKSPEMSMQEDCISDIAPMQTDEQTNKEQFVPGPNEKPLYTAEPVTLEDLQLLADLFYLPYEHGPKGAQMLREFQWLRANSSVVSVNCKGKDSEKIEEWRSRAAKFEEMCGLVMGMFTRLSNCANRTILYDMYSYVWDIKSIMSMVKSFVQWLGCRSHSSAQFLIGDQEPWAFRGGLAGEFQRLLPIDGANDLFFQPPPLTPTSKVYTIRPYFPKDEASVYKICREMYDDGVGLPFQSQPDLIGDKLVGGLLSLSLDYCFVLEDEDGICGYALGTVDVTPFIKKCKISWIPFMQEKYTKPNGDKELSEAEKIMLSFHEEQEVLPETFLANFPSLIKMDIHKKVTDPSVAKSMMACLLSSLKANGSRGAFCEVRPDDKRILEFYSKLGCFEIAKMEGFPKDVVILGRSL
measured metric: Emax (%)
Your answer is read as %, so omit the unit and give the number.

- molecule: "COc1cc(O[C@H]2CCN(C(C)c3ccc4c(n3)OCCO4)C2)cc(C)n1 (stereo partly shown) [Product 63]"
  observed measurement: 95
- molecule: "Cc1cc(C[C@@H]2CCN([C@H](C)c3cc4c(cc3F)OCCO4)C2)cc(C)n1"
  observed measurement: 99
- molecule: "COc1cc(C[C@H]2CCN([C@H](C)c3cnc4c(c3)C(=O)N(C)CC4)C2)cc(C)n1"
  observed measurement: 58
- molecule: "Cc1cc(OC[C@@H]2CCN(C(C)c3nc4c(cc3F)OCCO4)C2)cc(C)n1 (stereo partly shown)"
  observed measurement: 100

Data request, read-out Emax, for Cc1ncc(O[C@@H]2CCN(C(C)c3nc4c(cc3F)OCCO4)C2)nc1C (stereo partly shown)
94

Data request, read-out Emax, for Cc1ccc(O[C@H]2CCN(C(C)c3ccc4c(n3)OCCO4)C2)cn1 (stereo partly shown)
83

Data request, read-out Emax, for Cc1cc(C[C@@H]2CCN(C(C)c3ccc4c(n3)OCCO4)C2)cc(C)n1 (mixture of isomers)
101

Data request, read-out Emax, for Cc1ccc(O[C@H]2CCN(C(C)c3nc4c(cc3F)OCCO4)C2)cn1 (stereo partly shown)
96

Data request, read-out Emax, for COc1cc(C[C@@]2(C)CCN([C@H](C)c3ccc4c(n3)OCCO4)C2)cc(C)n1 (single isomer, unassigned)
93

Data request, read-out Emax, for Cc1cc(C[C@H]2CN(C(C)c3ccc4c(n3)OCCO4)C[C@@H]2C)cc(C)n1 (mixture of isomers)
99

Data request, read-out Emax, for COc1cc(O[C@H]2CCN(C(C)c3ccc4c(n3)OCCO4)C2)cc(C)n1 (single isomer, unassigned) [Product 64]
99

Data request, read-out Emax, for CC(c1cc2c(cc1F)OCCO2)N1CC[C@H](Cc2ncc(F)cc2F)C1 (stereo partly shown)
102
